# procedureDetails: GC fingerprint: study on the sample stability
# Format: physicochemical
# measurementSetup: Semen Ziziphi Spinosae oil sample 2 test solution, mean over 0-12 h
experimentalEndpoint: Relative retention time, Mean
// keep it numeric: no unit symbol after the value

Entry CCCCCCCCCCCCCCCCCCCCCC(=O)OC [Peak 11] ; Relative retention time, Mean = 1.6532

Entry CCCCCCCC/C=C\CCCCCCCC(=O)OC [Peak s] ; Relative retention time, Mean = 1.0000

Entry CC/C=C\C/C=C\C/C=C\CCCCCCCC(=O)OC [Peak 5] ; Relative retention time, Mean = 1.1834

Entry CCCCCCCCCCCCCCCCCCCC(=O)OC [Peak 8] ; Relative retention time, Mean = 1.3064

* * *

# procedureDetails: GC fingerprint: study on the sample stability
# Type: physicochemical
# measurementSetup: Semen Ziziphi Spinosae oil sample 2 test solution, tested at 3 h, GC
# Description: […]
experimentalEndpoint: Relative peak area, standing time 3
// keep it numeric: no unit symbol after the value

Entry CCCCCCCC/C=C\CCCCCCCC(=O)OC [Peak s] ; Relative peak area, standing time 3 = 1.000

Entry CCCCCCCCCCCCCCCCCCCCCC(=O)OC [Peak 11] ; Relative peak area, standing time 3 = 0.021

Entry CCCCCCCCCCCCCCCCCCCC(=O)OC [Peak 8] ; Relative peak area, standing time 3 = 0.023

Entry CC/C=C\C/C=C\C/C=C\CCCCCCCC(=O)OC [Peak 5] ; Relative peak area, standing time 3 = 0.009

* * *

Assign Relative retention time, standing time 12 to each entry below.
# procedureDetails: GC fingerprint: study on the sample stability
# Type: physicochemical
# measurementSetup: Semen Ziziphi Spinosae oil sample 2 test solution, tested at 12 h, GC
// keep it numeric: no unit symbol after the value

Entry CCCCCCCC/C=C\CCCCCCCC(=O)OC [Peak s] ; Relative retention time, standing time 12 = 1.000

Entry CCCCCCCCCCCCCCCCCCCC(=O)OC [Peak 8] ; Relative retention time, standing time 12 = 1.306

Entry CCCCCCCCCCCCCCCCCCCCCC(=O)OC [Peak 11] ; Relative retention time, standing time 12 = 1.653

Entry CC/C=C\C/C=C\C/C=C\CCCCCCCC(=O)OC [Peak 5] ; Relative retention time, standing time 12 = 1.183

* * *

# procedureDetails: GC fingerprint: study on the sample stability
# Format: physicochemical
# measurementSetup: Semen Ziziphi Spinosae oil sample 2 test solution, tested at 6 h, GC
experimentalEndpoint: Relative peak area, standing time 6
// keep it numeric: no unit symbol after the value

Entry CCCCCCCCCCCCCCCCCCCC(=O)OC [Peak 8] ; Relative peak area, standing time 6 = 0.023

Entry CC/C=C\C/C=C\C/C=C\CCCCCCCC(=O)OC [Peak 5] ; Relative peak area, standing time 6 = 0.009

Entry CCCCCCCCCCCCCCCCCCCCCC(=O)OC [Peak 11] ; Relative peak area, standing time 6 = 0.021

Entry CCCCCCCC/C=C\CCCCCCCC(=O)OC [Peak s] ; Relative peak area, standing time 6 = 1.000

* * *

# procedureDetails: GC fingerprint: study on the sample stability
# Type: physicochemical
# measurementSetup: Semen Ziziphi Spinosae oil sample 2 test solution, tested at 9 h, GC
experimentalEndpoint: Relative peak area, standing time 9

Entry CCCCCCCCCCCCCCCCCCCCCC(=O)OC [Peak 11] ; Relative peak area, standing time 9 = 0.021

Entry CC/C=C\C/C=C\C/C=C\CCCCCCCC(=O)OC [Peak 5] ; Relative peak area, standing time 9 = 0.009

Entry CCCCCCCCCCCCCCCCCCCC(=O)OC [Peak 8] ; Relative peak area, standing time 9 = 0.023

Entry CCCCCCCC/C=C\CCCCCCCC(=O)OC [Peak s] ; Relative peak area, standing time 9 = 1.000

* * *

# procedureDetails: GC fingerprint: study on the sample stability
# Type: physicochemical
# measurementSetup: Semen Ziziphi Spinosae oil sample 2 test solution, tested at 0 h, GC
experimentalEndpoint: Relative peak area, standing time 0
// keep it numeric: no unit symbol after the value

Entry CC/C=C\C/C=C\C/C=C\CCCCCCCC(=O)OC [Peak 5] ; Relative peak area, standing time 0 = 0.009

Entry CCCCCCCCCCCCCCCCCCCC(=O)OC [Peak 8] ; Relative peak area, standing time 0 = 0.023

Entry CCCCCCCC/C=C\CCCCCCCC(=O)OC [Peak s] ; Relative peak area, standing time 0 = 1.000

Entry CCCCCCCCCCCCCCCCCCCCCC(=O)OC [Peak 11] ; Relative peak area, standing time 0 = 0.020
